Tested on: SK-MEL-5 melanoma
Experiment: NCI-60 one-dose screen, 48 h (100 = growth as untreated, 0 = no growth, -100 = all killed)
Settings: 10 µM unless noted
This is part of a sample that, as a whole, favours compounds with a hit. Of some 83,000 tested, about 20% had one in any assay.
Entries and their growth
Hi! Could you send only the number? It should be in %, unit omitted.

Consider the following illustrative entries.
- MOL: "Cc1cccc2nc3ccccc3c(Nc3ccc(NS(C)(=O)=O)cc3)c12"
  REPORTED_PROPERTY: "growth"
  MEASURED_NUMBER: 48.3
- MOL: "Cc1ccc(C)c2c1SC1=NNC(Oc3ccc(Cl)cc3)=C(C#N)C(=N)N12"
  REPORTED_PROPERTY: "growth"
  MEASURED_NUMBER: 93.5
- MOL: "O=C(NCCN1CCCC1)n1cc(-c2ccncc2)c(-c2cc(O)cc(Cl)c2)n1"
  REPORTED_PROPERTY: "growth"
  MEASURED_NUMBER: 62.9
- MOL: "CC(C)CCSc1nc(-c2ccc(F)cc2)c(C#N)c(N2CCN(C)CC2)n1"
  REPORTED_PROPERTY: "growth"
  MEASURED_NUMBER: 90.4

// returns reported growth for input "Nc1c(C(=O)Nc2ccccc2)sc2nc3c(cc12)C(=O)CCC3"
25.7

Try this molecule next: "Cc1cc(N)cc(C)c1-c1c(Br)cc(N)cc1Br"
21
